assay-target: Short transient receptor potential channel 4 (Mus musculus)
protocol-summary: activators of mouse TRPC4 channel, primary screen, Fluo4 calcium, HEK293 TRPC4beta/mu-opioid cells (AID 2237);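 as to B-score: positive B-score marks a calcium rise read as TRPC4 activation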
experimental-parameters: Fluo4 calcium fluorescence, at 10 µM; active compounds read high
Among all 310,000 compounds or so, about 1,500 (0.48%) were called active. Many of the other results were omitted from the sample, so actives are more common in it than they were.
measure: B-score

Known results for compounds:
>>> print(df.to_string())
                                   compound                              assay_target      reading
0  CCN(CC)c1ccc2cc(C(N)=O)/c(=N\NC(=O)c3ccncc3)oc2c1  Short transient receptor potential channel 4 (Mus musculus)  79 (active)
1               O=C(COc1ccccc1Cl)N1CCCCCCC1  Short transient receptor potential channel 4 (Mus musculus)     inactive
2  COC(=O)c1cc(S(=O)(=O)NC2CCN(Cc3ccccc3)CC2)cn1C  Short transient receptor potential channel 4 (Mus musculus)     inactive
3  CC(=O)c1ccc(N2CCN(CC(O)c3ccccc3)CC2)cc1 (stereo not given)  Short transient receptor potential channel 4 (Mus musculus)  63 (active)
4            C=C(C)CSc1nnc(-c2ccc(C)cc2)n1N  Short transient receptor potential channel 4 (Mus musculus)     inactive

Report measured B-score; entry is CC(=O)OC(C)C[N+](C)(C)C (stereo not given) 57 (active)

Entry Cc1cc(-c2ccc(C)c(S(=O)(=O)NCCCN(Cc3ccccc3)C(C)C)c2)on1 needs its B-score filled in; supply it. 127 (active)

Specify B-score for CCc1ccc(C(CNc2nc(C(F)(F)F)nc3ccccc23)N(C)C)cc1 (stereo not given) and stop. 51 (active)

Output B-score of O=C(CCc1ccccc1)NNC(=O)COc1ccc(Cl)cc1 inactive

Input COc1ccc2c(c1)OC(O)(C(F)(F)C(F)F)CC2=O (stereo not given) , output reported B-score. 82 (active)

----------
assay-target: Short transient receptor potential channel 4 (Mus musculus) (UniProt Q9QUQ5)
Sequence (Q9QUQ5 whole entry, looked up): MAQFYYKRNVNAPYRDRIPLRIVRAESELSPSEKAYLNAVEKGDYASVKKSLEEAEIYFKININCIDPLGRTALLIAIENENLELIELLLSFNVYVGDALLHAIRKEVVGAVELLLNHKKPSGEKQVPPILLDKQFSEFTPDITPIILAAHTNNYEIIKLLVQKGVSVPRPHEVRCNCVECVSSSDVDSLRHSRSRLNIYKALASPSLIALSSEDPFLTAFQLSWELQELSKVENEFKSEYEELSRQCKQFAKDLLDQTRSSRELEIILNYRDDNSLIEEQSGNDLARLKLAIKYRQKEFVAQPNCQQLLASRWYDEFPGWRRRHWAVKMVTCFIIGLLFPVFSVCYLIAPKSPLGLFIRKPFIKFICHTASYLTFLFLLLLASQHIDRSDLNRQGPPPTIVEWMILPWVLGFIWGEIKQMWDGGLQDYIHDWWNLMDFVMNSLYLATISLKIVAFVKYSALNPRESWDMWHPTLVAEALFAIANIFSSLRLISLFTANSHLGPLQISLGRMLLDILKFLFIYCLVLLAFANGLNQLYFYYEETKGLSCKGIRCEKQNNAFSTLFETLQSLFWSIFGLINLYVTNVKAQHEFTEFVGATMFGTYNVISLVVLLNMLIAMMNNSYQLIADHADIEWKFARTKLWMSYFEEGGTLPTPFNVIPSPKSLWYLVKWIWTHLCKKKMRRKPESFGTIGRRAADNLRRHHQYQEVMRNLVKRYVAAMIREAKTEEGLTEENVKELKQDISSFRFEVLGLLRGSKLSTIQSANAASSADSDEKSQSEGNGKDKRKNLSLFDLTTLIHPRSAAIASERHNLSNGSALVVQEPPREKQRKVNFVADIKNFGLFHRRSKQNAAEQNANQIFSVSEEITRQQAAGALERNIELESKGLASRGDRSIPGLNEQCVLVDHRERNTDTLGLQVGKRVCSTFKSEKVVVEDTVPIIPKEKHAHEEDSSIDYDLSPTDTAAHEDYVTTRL
protocol-summary: activators of mouse TRPC4 channel, primary screen, Fluo4 calcium, HEK293 TRPC4beta/mu-opioid cells (AID 2237);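 as to B-score: positive B-score marks a calcium rise read as TRPC4 activation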
experimental-parameters: Fluo4 calcium fluorescence, at 10 µM; active compounds read high
Screen size: about 310,000 compounds; about 1,500 (0.48%) were called active. The entries come from a sample that favours actives as a whole.
measure: B-score

Some entries whose results are on file:
>>> print(df.to_string())
                                   molecule  measure      reading
0  C[C@]1(C(=O)NCCc2c[nH]c3ccccc23)C=C[C@@H](Cc2ccccc2)N1C(=O)c1ccccc1  B-score     inactive
1  CCCCn1c(-c2cccc(C)c2)nc2cc3[nH]c(=O)c(C(C)C)nc3cc21  B-score     inactive
2     Cc1cc(N2CCN(c3ccc(F)cc3)CC2)n2ncnc2n1  B-score     inactive
3  CC(=O)NC1(c2ccc(F)cc2)CCN(C(=O)c2c(F)cccc2F)CC1  B-score     inactive
4  CC(c1cccnc1)N(CCN(C)C)C(=O)Nc1ccc(Cl)c(Cl)c1 (stereo unspecified)  B-score  62 (active)

Dear colleague, please send me the reported B-score for CCOC(=O)c1ccc(NC(=O)c2c(NCc3ccccc3)[nH]c(=O)[nH]c2=O)cc1 when you can. inactive

For the molecule COc1cc(C(=O)Nn2c(CC(C)C)nc3ccccc3c2=O)cc(OC)c1OC , report B-score. inactive

Entry c1ccc(C[C@H]2CNCCN2CCC23CC4CC(CC(C4)C2)C3)cc1 needs its B-score filled in; supply it. inactive

Answer with reported B-score of COc1ccc(-c2cc(=O)oc3cc(OC(C)C(=O)NCC4CCC(C(=O)O)CC4)ccc23)cc1 (stereo unspecified) inactive

Complete the entry with B-score for COc1ccc(Br)cc1CN(C)CC(=O)Nc1cc([N+](=O)[O-])ccc1OC inactive

Please supply the value of reported B-score for the item CCOc1ccc(N(CC(=O)NCCOc2ccccc2OC)S(=O)(=O)c2ccccc2)cc1 inactive

Could you please provide reported B-score for CCOC(=O)C1CCCCN1Cc1ccc(OC)c(OC)c1OC (stereo unspecified) ? Thanks! inactive

For the molecule COCCCNC(=O)CNC(=O)c1nn(-c2ccc(OC)cc2)c(=O)c2ccccc12 , give its measured B-score value. inactive

Specify B-score for O=C(c1c(F)cccc1F)N1CCN(c2ncc(Br)cn2)CC1 and stop. 204 (active)

Indicate the recorded B-score value for this molecule: COc1ccc(C)cc1N(CC(=O)N1CCCC1)S(=O)(=O)c1ccccc1 inactive

Tell us which B-score value is on record for Clc1ccc(COn2c(-c3ccc(Cl)cc3Cl)nc3ncccc32)cc1 80 (active)
